molecular target: T1, human CD33 Fc fusion protein (human, UniProt P20138 18-259); assay: RBC adhesion to plate-bound CD33-Fc; antibody 0.5 ug/ml;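 note: Plate-coated CD33-Fc preincubated 1 h with antibody, then red blood cells added for 1 h at room temperature, adherent cells lysed and quantified via peroxidase activity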
T1 construct: also called hCD33-Fc; human CD33/Fc chimera (R&D Systems)
T1 sequence (P20138 18-259 limits assumed): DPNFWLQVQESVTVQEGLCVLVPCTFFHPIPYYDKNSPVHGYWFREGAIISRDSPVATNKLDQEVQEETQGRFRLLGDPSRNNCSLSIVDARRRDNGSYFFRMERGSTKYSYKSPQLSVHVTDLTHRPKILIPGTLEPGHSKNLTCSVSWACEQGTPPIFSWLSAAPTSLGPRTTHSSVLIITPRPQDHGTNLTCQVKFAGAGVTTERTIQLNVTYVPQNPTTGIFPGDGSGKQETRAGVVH
Measured Property: Percent RBC Binding to CD33 (%)
Use % as the unit, but write only the number.

Some binders with recorded Percent RBC Binding to CD33:
Binder: C-3 (antibody, V domains shown, human IgG1) VH: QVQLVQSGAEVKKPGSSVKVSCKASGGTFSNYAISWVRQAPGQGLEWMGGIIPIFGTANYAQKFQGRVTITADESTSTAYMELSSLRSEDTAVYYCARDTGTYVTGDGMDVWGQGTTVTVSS VL: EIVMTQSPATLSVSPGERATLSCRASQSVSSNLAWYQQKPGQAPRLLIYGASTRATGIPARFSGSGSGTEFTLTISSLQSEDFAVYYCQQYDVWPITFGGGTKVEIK
Measured: 14.5
//
Binder: C-41 (antibody, V domains shown, human IgG1) VH: QLQLQESGPGLVKPSETLSLTCTVSGGSISSSSYYWGWIRQPPGKGLEWIGSISYSGSTYYNPSLKSRVTISVDTSKNQFSLKLSSVTAADTAVYYCAREGGKGMDVWGQGTLVTVSS VL: EIVLTQSPGTLSLSPGERATLSCRASQSVSSSFLAWYQQKPGQAPRLLIYGASSRATGIPDRFSGSGSGTDFTLTISRLEPEDFAVYYCQQFGDLPTFGGGTKVEIK
Measured: 10.7

Now for another entry.
# query: Percent RBC Binding to CD33 of entry C-27 (antibody, V domains shown, human IgG1) VH: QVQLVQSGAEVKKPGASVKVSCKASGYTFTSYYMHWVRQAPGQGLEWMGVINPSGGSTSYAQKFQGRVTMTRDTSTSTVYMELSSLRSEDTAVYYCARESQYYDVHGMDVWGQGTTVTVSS VL: DIQMTQSPSSLSASVGDRVTITCRASQSISSYLNWYQQKPGKAPKLLIYAASSLQSGVPSRFSGSGSGTDFTLTISSLQPEDFATYYCQQHYDIPLTFGGGTKVEIK 15.9
